# MEASURED_ON: CB2 receptor (Homo sapiens, UniProt P34972)
# Sequence (P34972 whole entry): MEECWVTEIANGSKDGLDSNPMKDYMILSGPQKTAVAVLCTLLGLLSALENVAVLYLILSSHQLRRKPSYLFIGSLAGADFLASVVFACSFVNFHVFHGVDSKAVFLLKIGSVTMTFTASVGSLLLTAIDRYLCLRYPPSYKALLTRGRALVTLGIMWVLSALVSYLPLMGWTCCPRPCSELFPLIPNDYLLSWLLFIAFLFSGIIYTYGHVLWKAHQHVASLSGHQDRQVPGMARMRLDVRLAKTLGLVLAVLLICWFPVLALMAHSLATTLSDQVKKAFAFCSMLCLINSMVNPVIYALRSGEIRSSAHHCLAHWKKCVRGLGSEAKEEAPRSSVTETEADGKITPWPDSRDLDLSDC
# TEST_DESCRIPTION: hCB2-mediated [35S]GTPγS binding
# TEST_CONTEXT: agonist mode; read-out: in vitro CB2 receptor agonist potency (EC50)
RECORDED_METRIC: pEC50
Here pEC50 is given on a logarithmic scale as minus log10 of the concentration in mol/L.

Challenge: What value of pEC50 has been recorded for this entry: CNc1ccc(C(=O)N[C@@H]2C(C)(C)[C@@H]3CC[C@@]2(C)C3)cc1S(=O)(=O)N(C)C
Response given: 7.73

###

Assignment: determine reported Ki for the given compounds.
# MEASURED_ON: CB2 receptor (Homo sapiens)
# Construct: expressed in transfected cells; host or cells: CHO-K1
# TEST_DESCRIPTION: Inhibition of [3H]CP55940 binding to cloned human CB2 receptor membranes
The figure you give is taken to be in nM; do not add the unit.

Challenge: What value of Ki has been recorded for this entry: COCCNc1ccc(C(=O)NC2C(C)(C)[C@@H]3CC[C@@]2(C)C3)cc1S(=O)(=O)N1CCOCC1 (some centres unmarked)
Response given: 1.6

Challenge: What value of Ki has been recorded for this entry: CNc1ccc(C(=O)N[C@@H]2C(C)(C)[C@@H]3CC[C@@]2(C)C3)cc1S(=O)(=O)N(C)C
Response given: 8.9

###

# MEASURED_ON: CB2 receptor (Homo sapiens)
RECORDED_METRIC: pIC50
Here pIC50 is given on a logarithmic scale as minus log10 of the concentration in mol/L.

Challenge: Give pIC50 (CB2 receptor (Homo sapiens)) of the following compound: COCCNc1ccc(C(=O)NC2C(C)(C)[C@@H]3CC[C@@]2(C)C3)cc1S(=O)(=O)N1CCOCC1 (stereo partly shown) [Compound 2D]
Response given: 8.07
